# experimental target: Luciferin 4-monooxygenase (Photinus pyralis)
# experimental details: qHTS profiling assay for firefly luciferase inhibitor/activator using purifed enzyme and Km concentrations of substrates (counterscreen for miR-21 project); further: nearly all actives have a fitted effect of over 55% in size
# condition details: purified FLuc, luminescence inhibition; series mostly up to 57.5 µM
About 25,000 (6.9%) of roughly 360,000 compounds were called active. Inconclusive results (about 9%) are left out. The call rests on the fitted dose curve; in most records, active means well fitted inhibition curve with a large enough effect; inconclusive means small, poorly fitted or top-dose-only effect; inactive means flat fitted curve, though single readings scatter. Many of the other results were omitted from the sample, so actives are more common in it than they were.
Result category, one only: active, inactive

Please review the entries below; each comes with its answer.
Cc1ccc(-c2nc(COC(=O)c3c(C)noc3C)cs2)cc1 = active
CCOc1ccc(N(Cc2ccccc2)C(=O)c2nc(S(C)(=O)=O)ncc2Cl)cc1 = inactive
COc1ccc(S(=O)(=O)N2CCOCC2)cc1NC(=O)CSc1cc(C)ccc1C = inactive
CC(C)(C)OC(=O)Nc1ccc([C@@H](NC(=O)OC(C)(C)C)C(=O)OC(C)(C)C)cc1 = inactive
CCN1C(=S)N[C@@H](c2cccc(C(F)(F)F)c2)C(C(=O)OC)=C1C = inactive

# input What was the test verdict on "CCCN1CCN(CCCNC(=O)c2cnn(-c3ccc(C)cc3)c2-n2cccc2)CC1" ?
# output inactive

# input # fetch the recorded call for "CCCc1cc(-c2n[nH]c(=S)n2Cc2ccccc2)cs1" here
# output inactive

This collection of values is drawn from PubChem BioAssay AID588342.
